FYI, the data here is from PubChem BioAssay.

biological target: NADPH oxidase 2 (Homo sapiens); assay: NOX2-dependent H2O2 signal modulators, primary screen, NOX inhibitor project, cell-based, HEK293-NOX2, PMA-stimulated, Amplex Red fluorescence (AID 1159); settings: 45 min, higher = more signal, called active from +8 up or from −8 down; note: test concentration not given here
metric: z-score
Form field (numeric): enter value without unit.

Below: 2 compounds and their reported z-score.
compound	z-score
COc1cc2c(cc1O)C(C)N(Cc1cccc(OC(F)(F)F)c1)CC2 (stereo unspecified)	-3.51
CC1=C2[C@@H](CCc3ccccc3)OB(O)C[C@@H]2n2c(=O)n(-c3ccccc3)c(=O)n2C1	-0.416

As a next step, examine the compound that follows.
[in] Quick check: z-score of CC(C)(C)OC(=O)CC[C@@]1(C(=O)O)N=C(c2ccc(OCCCO)cc2)O[C@@H]1c1ccccc1N=[N+]=[N-] ?
[out] -0.0442
